system: HeLa; assay: Antiproliferative activity against human HeLa cells assessed as cell growth inhibition at 10 uM incubated for 48 hrs by CCK8 assay relative to control; format: functional; details: read-out: GI
Parameter: inhibition of growth at 10 µM. Scope: all listed entries.
quantity-name: inhibition of growth at 10 µM

* Nc1ccn([C@@H]2O[C@H](CO)[C@@H](O)C2(F)F)c(=O)n1 [GEMCITABINE] | 61.4%
* CCC(C)Cc1c2c(c(OC)c3c1OCO3)[C@H]([C@H]1OC(=O)c3c1ccc(OC)c3OC)N(C(=O)OC(C)(C)C)CC2 (stereo partly specified) | 6.92%
* CCOP(=O)(CCc1c2c(c(OC)c3c1OCO3)[C@H]([C@H]1OC(=O)c3c1ccc(OC)c3OC)N(C(=O)OC(C)(C)C)CC2)OCC | < 5%
* COc1ccc2c(c1OC)C(=O)O[C@@H]2[C@H]1c2c(c(CC3CCCC3)c3c(c2OC)OCO3)CCN1C(=O)OC(C)(C)C | < 5%
* COc1ccc2c(c1OC)C(=O)O[C@@H]2[C@H]1c2c(c(CC3CN(C(=O)OC(C)(C)C)C3)c3c(c2OC)OCO3)CCN1C(=O)OC(C)(C)C | < 5%
* COc1ccc2c(c1OC)C(=O)O[C@@H]2[C@H]1c2c(c(C3COC3)c3c(c2OC)OCO3)CCN1C(=O)OC(C)(C)C | 14.9%
* COc1ccc2c(c1OC)C(=O)O[C@@H]2[C@H]1c2c(c(CC3CC3)c3c(c2OC)OCO3)CCN1C(=O)OC(C)(C)C | < 5%
* COc1ccc2c(c1OC)C(=O)O[C@@H]2[C@H]1c2c(c(CC3CCN(C(=O)OC(C)(C)C)CC3)c3c(c2OC)OCO3)CCN1C(=O)OC(C)(C)C | < 5%
* COc1ccc2c(c1OC)C(=O)O[C@@H]2[C@H]1c2c(c(C3CC3)c3c(c2OC)OCO3)CCN1C(=O)OC(C)(C)C | < 5%
* COc1ccc2c(c1OC)C(=O)O[C@@H]2[C@H]1c2c(c(CC3CCCN3C(=O)OC(C)(C)C)c3c(c2OC)OCO3)CCN1C(=O)OC(C)(C)C (stereo partly specified) | 8.57%
* COc1ccc2c(c1OC)C(=O)O[C@@H]2[C@H]1c2c(c(CCCC(F)(F)F)c3c(c2OC)OCO3)CCN1C(=O)OC(C)(C)C | < 5%
* COc1ccc2c(c1OC)C(=O)O[C@@H]2[C@H]1c2c(c(CC3CCCO3)c3c(c2OC)OCO3)CCN1C(=O)OC(C)(C)C (stereo partly specified) | 24.7%
* COc1ccc2c(c1OC)C(=O)O[C@@H]2[C@H]1c2c(c(CC3CCOCC3)c3c(c2OC)OCO3)CCN1C(=O)OC(C)(C)C | 23%
* COc1ccc2c(c1OC)C(=O)O[C@@H]2[C@H]1c2c(c(C3CCCCCC3)c3c(c2OC)OCO3)CCN1C(=O)OC(C)(C)C | < 5%
* CCCCc1c2c(c(OC)c3c1OCO3)[C@H]([C@H]1OC(=O)c3c1ccc(OC)c3OC)N(C(=O)OC(C)(C)C)CC2 | < 5%
* COc1ccc2c(c1OC)C(=O)O[C@@H]2[C@H]1c2c(c(Br)c3c(c2OC)OCO3)CCN1C | 28.1%
* COc1ccc2c(c1OC)C(=O)O[C@@H]2[C@H]1c2c(c(C3CCN(C(=O)OC(C)(C)C)CC3)c3c(c2OC)OCO3)CCN1C(=O)OC(C)(C)C | 17.5%
* COc1ccc2c(c1OC)C(=O)O[C@@H]2[C@H]1c2c(c(CC3CCN3C(=O)OC(C)(C)C)c3c(c2OC)OCO3)CCN1C(=O)OC(C)(C)C (stereo partly specified) | < 5%
* COc1ccc2c(c1OC)C(=O)O[C@@H]2[C@H]1c2c(c(C34C[C@H]5C[C@H](C3)C[C@@H](C4)C5)c3c(c2OC)OCO3)CCN1C(=O)OC(C)(C)C | < 5%
* COc1ccc2c(c1OC)C(=O)O[C@@H]2[C@H]1c2c(c(C3CCC(C)(C)CC3)c3c(c2OC)OCO3)CCN1C(=O)OC(C)(C)C | < 5%
* COCCCc1c2c(c(OC)c3c1OCO3)[C@H]([C@H]1OC(=O)c3c1ccc(OC)c3OC)N(C(=O)OC(C)(C)C)CC2 | < 5%
* COc1ccc2c(c1OC)C(=O)O[C@@H]2[C@H]1c2c(c(CC3(F)CN(C(=O)OC(C)(C)C)C3)c3c(c2OC)OCO3)CCN1C(=O)OC(C)(C)C | 8.57%
* COc1ccc2c(c1OC)C(=O)O[C@@H]2[C@H]1c2c(c(C3CCCC3)c3c(c2OC)OCO3)CCN1C(=O)OC(C)(C)C | < 5%
* COc1ccc2c(c1OC)C(=O)O[C@@H]2[C@H]1c2c(c(CC3CCN(C(=O)OC(C)(C)C)C3)c3c(c2OC)OCO3)CCN1C(=O)OC(C)(C)C (stereo partly specified) | < 5%
* COc1ccc2c(c1OC)C(=O)O[C@@H]2[C@H]1c2c(c(CCCNC(=O)OC(C)(C)C)c3c(c2OC)OCO3)CCN1C(=O)OC(C)(C)C | < 5%
* COc1ccc2c(c1OC)C(=O)O[C@@H]2[C@H]1c2c(cc3c(c2OC)OCO3)CCN1C [NOSCAPINE] | < 5%
